# Target Or System: T1, TNFR1 (Homo sapiens, UniProt P19438)
# T1 chain: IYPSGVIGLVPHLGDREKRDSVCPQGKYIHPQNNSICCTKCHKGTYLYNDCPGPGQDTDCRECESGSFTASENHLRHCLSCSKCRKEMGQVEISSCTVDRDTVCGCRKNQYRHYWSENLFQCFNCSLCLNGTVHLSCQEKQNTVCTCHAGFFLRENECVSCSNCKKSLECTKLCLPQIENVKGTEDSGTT
# Method Summary: yeast display SC50

Binder	Unit Name	apparent Kd (screen)
R96V (designed binder) SMEEEVEKAAKEYEKKKKEAIEKHLEKLKAKDKEAAERFLKELEEAAKEYAKDEAKTMSEEEAKRRAKKYKEKVLLSELSEEEQKEIKEAEEKLVVTILKYVEEAAK	nM	0.869
E91P (designed binder) SMEEEVEKAAKEYEKKKKEAIEKHLEKLKAKDKEAAERFLKELEEAAKEYAKDEAKTMSEEEAKRRAKKYKEKVLLSELSEEEQKEIKEAPEKLVRTILKYVEEAAK	nM	1.54
